Attribution: the supplement of paper PMC8671470

- Tested on: HL-60
- assayProcedure: area under dose-response curve (viability, 1 nM-10 uM) (fraction (0-1)); higher = more sensitive
- recordedConditions: 72 h; co-treatment: DMSO vehicle
valueKind: area under dose-response curve

Some compounds with known area under dose-response curve results, for comparison:
[
  {
    "compound": "Cc1c(-c2ccccc2)oc2c(C(=O)OCCN3CCCCC3)cccc2c1=O.Cl [Flavoxate]",
    "area under dose-response curve": "< 0.0301"
  },
  {
    "compound": "CCN(CC)CCN(Cc1ccc(-c2ccc(C(F)(F)F)cc2)cc1)C(=O)Cn1c(SCc2ccc(F)cc2)nc(=O)c2c1CCC2 [Darapladib]",
    "area under dose-response curve": 0.14
  },
  {
    "compound": "Nc1ccn([C@@H]2O[C@H](CO)[C@@H](O)[C@@H]2O)c(=O)n1 [Cytarabine]",
    "area under dose-response curve": 0.214
  },
  {
    "compound": "O=C(COc1ccc(C(=O)c2ccccc2)cc1)NC1CCN(Cc2ccccc2)CC1 [AdipoRon]",
    "area under dose-response curve": "< 0.0301"
  }
]

From here, focus on the item given below.
# input # returns recorded area under dose-response curve (system: HL-60) for N[C@](CCCCB(O)O)(CCN1CCCCC1)C(=O)O [Arginase inhibitor 1]
# output 0.0367

----------
# reported cell viability; entries follow
- System: SHI-1
- assayProcedure: cell viability (% survival relative to DMSO control, bortezomib = 0%); higher = less cytotoxic
- recordedConditions: 10000 nM; 72 h
Return type: number; implicit unit %.

Known results for molecules:
[
  {
    "molecule": "Cl.OC[C@H]1NC[C@@H](O)[C@@H](O)[C@@H]1O [1-Deoxymannojirimycin hydrochloride]",
    "valueUnits": "%",
    "cell viability": 89.5
  },
  {
    "molecule": "CCCc1nn(C)c2c(O)nc(-c3cc(S(=O)(=O)N4CCN(C)CC4)ccc3OCC)nc12",
    "valueUnits": "%",
    "cell viability": 114
  },
  {
    "molecule": "O=C1Nc2ccccc2/C1=C\\NCCc1ccc(O)c(O)c1",
    "valueUnits": "%",
    "cell viability": 90.8
  }
]

# input So what's the measured cell viability for this one? CCOC(=O)N1c2ccc(C(F)(F)F)cc2[C@@H](N(Cc2cc(C(F)(F)F)cc(C(F)(F)F)c2)C(=O)OC)C[C@H]1CC
# output 99.8

----------
Reported cell viability values follow for various compounds
- Tested on: HL-60
- assayProcedure: cell viability (% survival relative to DMSO control, bortezomib = 0%); higher = less cytotoxic
- recordedConditions: 1 nM; 72 h
Reply with just the number (in %).

Worked cases, answers included:
[
  {
    "compound": "Clc1ccc2c(c1Cl)CNCC2",
    "valueKind": "cell viability",
    "valueUnits": "%",
    "reportedValue": 101
  },
  {
    "compound": "C[C@H]1O[C@@H](O[C@H]2[C@@H](O)C[C@H](O[C@H]3[C@@H](O)C[C@H](O[C@H]4CC[C@@]5(C)[C@H](CC[C@@H]6[C@@H]5C[C@@H](O)[C@]5(C)[C@@H](C7=CC(=O)OC7)CC[C@]65O)C4)O[C@@H]3C)O[C@@H]2C)C[C@H](O)[C@@H]1O [Digoxin]",
    "valueKind": "cell viability",
    "valueUnits": "%",
    "reportedValue": 104
  }
]

Next, consider the following compound.
# input Returns the measured cell viability for the input compound. Input: Nc1ccn([C@@H]2O[C@H](CO)[C@@H](O)[C@@H]2O)c(=O)n1 [Cytarabine]
# output 100
